Would you kindly list pIC50 for each of these compounds?
Tested on: MCF-7 cells (with PI3Kα E545K mutation)
Experiment: In vitro inhibition of MCF-7 cell proliferation (CellTiter-Lumi)
Type: cell-based
Conditions: Homo sapiens, MCF7, 144 h, class symbols, read-out: Inhibitory activity against MCF-7 cells (IC50), class symbols
pIC50: −log10 of the molar value.

Challenge: Observed pIC50 on MCF-7 cells (with PI3Kα E545K mutation) for CCOP(=O)(OCC)OCNC(C)(C)C=C(C#N)C(=O)Nc1ccc(N2CC(N3CCN(c4ccc5c(c4)-c4nc(N6C(=O)OC[C@H]6C(F)F)cn4CCO5)CC3)C2)cc1 [Compound 331] , please.
Response given: > 7.30

Challenge: Write down the reported pIC50 of Cc1nc(-c2cn3c(n2)-c2cc(N4CCN(C5CN(c6ccc(NC(=O)C(C#N)=CC(C)(C)NC(=O)OC(C)(C)C)cc6Cl)C5)CC4)ccc2OCC3)n(C(C)C)n1 [Compound 373] , test system: MCF-7 cells (with PI3Kα E545K mutation).
Response given: > 7.30

Challenge: GET /values?readout=pIC50&system=MCF-7 cells (with PI3Kα E545K mutation)&item= C=CC(=O)Nc1ccc(C#CC2CCN(c3ccc4c(c3)-c3nc(N5C(=O)OC[C@H]5C(F)F)cn3CCO4)CC2)cc1 [Compound 179]
Response given: 7.00 to 7.30

----------
System: HCC1954 cells (with PI3Kα H1047R mutation)
Assay: In vitro inhibition of HCC1954 cell proliferation (CellTiter-Lumi)
Assay type: cell-based
Settings: Homo sapiens, HCC1954, 144 h, HCC1954 cells, 144 h, CellTiter-Lumi; numeric values; read-out: Inhibitory activity against HCC1954 cells (IC50)
Assignment: determine reported IC50 for the given compounds.

Challenge: // map C=CC(=O)N1CCC(N2CCC(N3CCN(c4ccc5c(c4)-c4nc(N6C(=O)OC[C@H]6C(F)F)cn4CCO5)CC3)CC2)CC1 to recorded IC50 (system: HCC1954 cells (with PI3Kα H1047R mutation))
Response given: > 1000 nM

Challenge: Give the reported IC50 for C=C(C)C(=O)Nc1ccc(N2CC(CN3CCN(c4ccc5c(c4)-c4nc(N6C(=O)OC[C@H]6C(F)F)cn4CCO5)CC3)C2)cc1 (system: HCC1954 cells (with PI3Kα H1047R mutation)).
Response given: > 1000 nM

Challenge: Query the reported IC50 for HCC1954 cells (with PI3Kα H1047R mutation); item: C=CC(=O)N1CCC(CCN2CC3(C2)CN(c2ccc4c(c2)-c2nc(N5C(=O)OC[C@H]5C(F)F)cn2CCO4)C3)CC1
Response given: > 1000 nM

----------
Test system: HCC1954 cells (with PI3Kα H1047R mutation)
Assay: In vitro inhibition of HCC1954 cell proliferation (CellTiter-Lumi)
Type: cell-based
Settings: Homo sapiens, HCC1954, 144 h, HCC1954 cells, 144 h, CellTiter-Lumi; numeric values; read-out: Inhibitory activity against HCC1954 cells (IC50)
Procedure: Assay for In Vitro Inhibition of HCC1954 Cell Proliferation by Compounds of the Present Disclosure The growth of the cells was evaluated, and the IC50 for the inhibition of cell growth by the compounds was calculated.
Give IC50 for every item shown.

Challenge: Name the recorded IC50 for C=CC(=O)Nc1ccc(N2CC(N3CCN(c4ccc5c(c4)-c4nc(N6C(=O)OC[C@H]6C(F)F)cn4CCO5)CC3)C2)c(Cl)c1 .
Response given: 0.0046 µM

Challenge: Returns the measured IC50 for the input molecule. Input: C=CC(=O)Nc1ccc(CN2CCN(c3ccc4c(c3)-c3nc(N5C(=O)OC[C@H]5C(F)F)cn3CCO4)CC2)cc1
Response given: 0.644 µM

Challenge: // IC50 lookup, key: C=CC(=O)N1CCC(N2CCC(CN3CCN(c4ccc5c(c4)-c4nc(N6C(=O)OC[C@H]6C(F)F)cn4CCO5)CC3)CC2)CC1
Response given: > 1 µM

Challenge: Reported IC50 for C#CC(=O)Nc1ccc(N2CC(N3CCN(c4ccc5c(c4)-c4nc(N6C(=O)OC[C@H]6C(F)F)cn4CCO5)CC3)C2)cc1 : what is it?
Response given: 0.049 µM

Challenge: What does the record list as IC50 for C=CC(=O)Nc1ccc(N2CC(N3CCN(c4ccc5c(c4)-c4nc(N6C(=O)OC[C@H]6C(F)F)cn4CCO5)CC3)C2)cc1Cl ?
Response given: 0.0012 µM

Challenge: Returns the measured IC50 for the input molecule. Input: C=CC(=O)N1CCc2cc(N3CC(N4CCN(c5ccc6c(c5)-c5nc(N7C(=O)OC[C@H]7C(F)F)cn5CCO6)CC4)C3)cnc21
Response given: 0.544 µM

----------
Test system: HCC1954 cells (with PI3Kα H1047R mutation)
Test: In vitro inhibition of HCC1954 cell proliferation (CellTiter-Lumi)
Type: cell-based
Settings: Homo sapiens, HCC1954, 144 h, HCC1954 cells, 144 h, CellTiter-Lumi; numeric values; read-out: Inhibitory activity against HCC1954 cells (IC50)
Procedure: Assay for In Vitro Inhibition of HCC1954 Cell Proliferation by Compounds of the Present Disclosure The growth of the cells was evaluated, and the IC50 for the inhibition of cell growth by the compounds was calculated.
Readout label: IC50 (nM)
// return numeric value only (unit: nM, not printed)

Challenge: Lab request: please report IC50 under test system HCC1954 cells (with PI3Kα H1047R mutation) for Cc1nc(NC(=O)N2CCC[C@H]2C(N)=O)sc1-c1ccnc(C(C)(C)C(F)(F)F)c1 [Alpelisib, reference compound]
Response given: 1610

Challenge: Can you look up IC50 on HCC1954 cells (with PI3Kα H1047R mutation) for C=CC(=O)Nc1ccc(N2CC3(CCN(c4ccc5c(c4)-c4nc(N6C(=O)OC[C@H]6C(F)F)cn4CCO5)CC3)C2)cc1 ?
Response given: 68

Challenge: API: value(readout=IC50, system=HCC1954 cells (with PI3Kα H1047R mutation)) for record C=CC(=O)N1CCC(N2CC(N3CCN(c4ccc5c(c4)-c4nc(N6C(=O)OC[C@H]6C(F)F)cn4CCO5)CC3)C2)CC1
Response given: 620

Challenge: Query IC50 on HCC1954 cells (with PI3Kα H1047R mutation) for NC/C=C/C(=O)Nc1ccc(N2CC(N3CCN(c4ccc5c(c4)-c4nc(N6C(=O)OC[C@H]6C(F)F)cn4CCO5)CC3)C2)cc1
Response given: 77

----------
Tested on: HCC1954 cells (with PI3Kα H1047R mutation)
Experiment: In vitro inhibition of HCC1954 cell proliferation (CellTiter-Lumi)
Type: cell-based
Details: Homo sapiens, HCC1954, 144 h, HCC1954 cells, 144 h, CellTiter-Lumi; numeric values; read-out: Inhibitory activity against HCC1954 cells (IC50)
pIC50: −log10 of the molar value.
Label rule, in plain words: pIC50 of 8 and up is fulfilled, under 8 is not fulfilled.

Challenge: # bool: pIC50 of CC(C)=CC(=O)CCCCC(=O)N1CC(N2CCN(c3ccc4c(c3)-c3nc(N5C(=O)OC[C@H]5C(F)F)cn3CCO4)CC2)C1 >= 8
Response given: not fulfilled

Challenge: Is reported pIC50 greater than or equal to 8 here: C=CC(=O)N1CCN(CCCCN2CCN(c3ccc4c(c3)-c3nc(N5C(=O)OC[C@H]5C(F)F)cn3CCO4)CC2)CC1
Response given: not fulfilled

Challenge: For this compound, is measured pIC50 8 or higher? C=CC(=O)Nc1cnc(N2CC(N3CCN(c4ccc5c(c4)-c4nc(N6C(=O)OC[C@H]6C(F)F)cn4CCO5)CC3)C2)nc1
Response given: fulfilled

Challenge: Hi, just wondering whether CN(C1CCC1)C(C)(C)C=C(C#N)C(=O)Nc1ccc(N2CC(N3CCN(c4ccc5c(c4)-c4nc(N6C(=O)OC[C@H]6C(F)F)cn4CCO5)CC3)C2)cc1 shows pIC50 of 8 or higher.
Response given: not fulfilled

Challenge: pIC50 >= 8 for CC#CC(=O)N1CCc2cc(N3CC(N4CCN(c5ccc6c(c5)-c5nc(N7C(=O)OC[C@H]7C(F)F)cn5CCO6)CC4)C3)ccc21 ?
Response given: not fulfilled

Challenge: Decide: is the reported value of pIC50 for C=CC(=O)Nc1ccc(N2CC(N3CCN(c4ccc5c(c4)-c4nc(N6C(=O)OC[C@H]6C(F)F)cn4CCO5)CC3)C2)cc1C#N equal to or greater than 8?
Response given: fulfilled

Challenge: Does the compound C=CC(=O)N1CCc2sc(N3CC(N4CCN(c5ccc6c(c5)-c5nc(N7C(=O)OC[C@H]7C(F)F)cn5CCO6)CC4)C3)nc2C1 have recorded pIC50 that is 8 or more?
Response given: not fulfilled

----------
Tested on: HCC1954 cells (with PI3Kα H1047R mutation)
Assay: In vitro inhibition of HCC1954 cell proliferation (CellTiter-Lumi)
Assay type: cell-based
Conditions: Homo sapiens, HCC1954, 144 h, HCC1954 cells, 144 h, CellTiter-Lumi; numeric values; read-out: Inhibitory activity against HCC1954 cells (IC50)
Protocol: Assay for In Vitro Inhibition of HCC1954 Cell Proliferation by Compounds of the Present Disclosure The growth of the cells was evaluated, and the IC50 for the inhibition of cell growth by the compounds was calculated.
Readout label: pIC50
Please express pIC50 as -log10 of the molar concentration.

Challenge: Which measured pIC50 value corresponds to CN(C1COC1)C(C)(C)/C=C(\C#N)C(=O)Nc1ccc(N2CC(N3CCN(c4ccc5c(c4)-c4nc(N6C(=O)OC[C@H]6C(F)F)cn4CCO5)CC3)C2)cc1 ?
Response given: 7.17

Challenge: Look up pIC50: C=CC(=O)Nc1ccc(N2CC(N3CCN(c4ccc5c(c4)-c4nc(N6C(=O)OC[C@H]6C(F)F)cn4CCO5)CC3)C2)c(F)c1
Response given: 8.28

Challenge: Find the recorded pIC50 belonging to C=CC(=O)Nc1ccc(N2CC(N3CCN(c4ccc5c(c4)-c4nc(N6C(=O)OC[C@H]6C(F)F)cn4CCO5)CC3)C2)cc1OC(F)(F)F and report it.
Response given: 8.55

// data source = patent US20260193268A1
